The values you see were collected from patent US20250041429A1.

# experimentalTarget: BTK protein (Homo sapiens)
# Construct: endogenous in cells; host or cells: TMD-8 cells
# protocol: Measurement of BTK protein degradation ability in TMD-8 cells (Western blotting)
# Type: cell-based
# measurementConditions: compound 10 nM, harvested after 24 hours
experimentalEndpoint: BTK degradation (%) 10 nM
Answer with a number only, understood to be in %.

Recorded BTK degradation (%) 10 nM, per entry:
INSERT INTO results (compound, outputunit, valueobserved) VALUES
  ('Cc1cc(-c2ccnc(Nc3ccc(N4CCN(CC5CN(C(=O)c6cccc(NC7CCC(=O)NC7=O)c6)C5)CC4)cc3)n2)ccc1CNC(=O)c1cn(C(C)(C)C)nn1 (stereo not drawn)', '%', 95.5),
  ('Cc1cc(-c2ccnc(Nc3ccc(N4CCC(CN5CCN(c6ccc(NC7CCC(=O)NC7=O)cc6)CC5)CC4)cc3)n2)ccc1CNC(=O)N1CC(OC(C)C)C1 (stereo not drawn)', '%', 97.0),
  ('Cc1cc(-c2ccnc(Nc3ccc(C4CCN(CC5CCN(c6ccc7c(c6)C(=O)N(C6CCC(=O)NC6=O)C7=O)CC5)CC4)cc3)n2)ccc1CNC(=O)N1CC(OC(C)C)C1 (stereo not drawn)', '%', 95.5),
  ('Cc1cc(-c2ccnc(Nc3ccc(N4CCC(CN5CCC(c6ccc(N7CCC(=O)NC7=O)cc6)CC5)CC4)cc3)n2)ccc1CNC(=O)c1cn(C(C)(C)C)nn1', '%', 68.0);

Turning now to a further compound:
Task: Provide the documented BTK degradation (%) 10 nM with BTK protein (Homo sapiens) as the system for Cc1cc(-c2ccnc(Nc3ccc(N4CCC(CN5CCC(c6ccc(NC7CCC(=O)NC7=O)cc6)CC5)CC4)nc3)n2)ccc1CNC(=O)c1cn(C(C)(C)C)nn1 (stereo not drawn)
Result: 88.0

###

# experimentalTarget: BTK protein (Homo sapiens, UniProt Q06187)
# Construct: endogenous in cells; host or cells: TMD-8 cells
# Sequence (Q06187 whole entry): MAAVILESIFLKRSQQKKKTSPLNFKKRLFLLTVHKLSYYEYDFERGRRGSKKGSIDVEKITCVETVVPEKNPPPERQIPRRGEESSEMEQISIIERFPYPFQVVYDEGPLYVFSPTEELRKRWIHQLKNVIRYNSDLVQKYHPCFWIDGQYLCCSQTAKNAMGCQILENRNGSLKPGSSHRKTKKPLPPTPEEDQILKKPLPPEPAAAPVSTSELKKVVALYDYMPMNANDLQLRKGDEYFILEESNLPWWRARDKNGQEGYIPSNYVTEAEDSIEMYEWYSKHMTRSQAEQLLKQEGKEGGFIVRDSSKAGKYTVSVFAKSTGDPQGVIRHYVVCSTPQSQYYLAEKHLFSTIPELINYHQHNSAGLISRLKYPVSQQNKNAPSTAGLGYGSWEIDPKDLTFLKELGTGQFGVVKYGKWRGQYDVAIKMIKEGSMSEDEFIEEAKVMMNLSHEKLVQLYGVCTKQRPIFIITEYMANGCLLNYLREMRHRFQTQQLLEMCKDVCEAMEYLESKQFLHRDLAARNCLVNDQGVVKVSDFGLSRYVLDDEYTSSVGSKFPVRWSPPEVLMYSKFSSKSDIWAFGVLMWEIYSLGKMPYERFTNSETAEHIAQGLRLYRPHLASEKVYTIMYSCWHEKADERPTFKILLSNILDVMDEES
# protocol: Measurement of BTK protein degradation ability in TMD-8 cells (Western blotting)
# Format: cell-based
# measurementConditions: compound 100 nM, harvested after 24 hours
experimentalEndpoint: BTK degradation (%) 100 nM
Answer with a number only, understood to be in %.

Recorded BTK degradation (%) 100 nM, per entry:
INSERT INTO assay_data (molecule, valueobserved) VALUES
  ('Cc1cc(-c2ccnc(Nc3ccc(N4CCN(CC5CCN(C(=O)c6cccc(NC7CCC(=O)NC7=O)c6)CC5)CC4)cc3)n2)ccc1CNC(=O)c1cn(C(C)(C)C)nn1 (centres unmarked) [Example 97]', 98.5),
  ('Cc1cc(-c2ccnc(Nc3ccc(N4CCN(CC5CN(c6ccc7c(c6)C(=O)N(C6CCC(=O)NC6=O)C7=O)C5)CC4)cc3)n2)ccc1CNC(=O)c1cnn(C(C)C)c1 (centres unmarked) [Example 34]', 99.5);

Task: I would be grateful if you could share the reported BTK degradation (%) 100 nM for Cc1c(NC(=O)N2CC(OC(C)C)C2)cc(F)cc1-c1ccnc(Nc2ccc3c(c2)CN(CC2CCN(c4ccc5c(c4)C(=O)N(C4CCC(=O)NC4=O)C5=O)CC2)CC3)n1 (centres unmarked) [Example 4] .
Result: 29

Task: I would be grateful if you could share the reported BTK degradation (%) 100 nM for Cc1cc(-c2ccnc(Nc3ccc(N4CCN(CC5CCN(c6ccc(OC7CCC(=O)NC7=O)cc6)CC5)CC4)cc3)n2)ccc1CNC(=O)N1CC(OC(C)C)C1 (centres unmarked) [Example 43] .
Result: 100.0

Task: I would be grateful if you could share the reported BTK degradation (%) 100 nM for Cc1cc(-c2ccnc(Nc3ccc(N4CCC(CN5CCC(c6ccc(NC7CCC(=O)NC7=O)cc6)CC5)CC4)cc3)n2)ccc1CNC(=O)c1cnn(C(C)C)c1 (centres unmarked) [Example 134] .
Result: 98.5

Task: I would be grateful if you could share the reported BTK degradation (%) 100 nM for Cc1cc(-c2ccnc(Nc3ccc(N4CCN(CC5CCN(c6cccc(N7CCC(=O)NC7=O)c6)CC5)CC4)cc3)n2)ccc1CNC(=O)c1cn(C(C)(C)C)nn1 [Example 70] .
Result: 99.5

Task: I would be grateful if you could share the reported BTK degradation (%) 100 nM for Cc1c(NC(=O)N2CC(OC(C)C)C2)cc(F)cc1-c1ccnc(Nc2ccc(N3CCN(CC4CCN(c5ccc6c(n5)CN(C5CCC(=O)NC5=O)C6=O)CC4)CC3)cc2)n1 (centres unmarked) [Example 26] .
Result: 93

Task: I would be grateful if you could share the reported BTK degradation (%) 100 nM for Cc1cc(-c2ccnc(Nc3ccc(N4CCN(CC5CCN(c6ccc7c(c6)C(=O)N(C6CCC(=O)NC6=O)C7=O)CC5)CC4)cc3)n2)ccc1CNC(=O)c1cnn(C(C)C)c1 (centres unmarked) [Example 33] .
Result: 99.5

Task: I would be grateful if you could share the reported BTK degradation (%) 100 nM for Cc1cc(-c2ccnc(Nc3ccc(N4CCN(CC5CCN(c6cccc(NC7CCC(=O)NC7=O)c6)CC5)CC4)cc3)n2)ccc1CNC(=O)c1cnn(C(C)C)c1 (centres unmarked) [Example 57] .
Result: 99.5

Task: I would be grateful if you could share the reported BTK degradation (%) 100 nM for Cc1cc(-c2ccnc(Nc3ccc(N4CCN(CC5CCN(c6ccc(N7CCC(=O)NC7=O)cc6)CC5)CC4)nc3)n2)ccc1CNC(=O)c1cn(C(C)(C)C)nn1 [Example 77] .
Result: 99.5

Task: I would be grateful if you could share the reported BTK degradation (%) 100 nM for Cc1cc(-c2ccnc(Nc3ccc(N4CCN(CC5CCN(c6ccc(NC7CCC(=O)NC7=O)cn6)CC5)CC4)cc3)n2)ccc1CNC(=O)c1cnn(C(C)C)c1 (centres unmarked) [Example 58] .
Result: 99.0
